TEST: yeast display, Sf9 membrane polyspecificity reagent, FACS + sequencing; frameworks hold sequencing errors
MEASURED_PARAMETER: polyreactivity (PSR sort gate)

These solved cases illustrate the format of a correct answer.
INPUT_SEQUENCE: QVQLVESGGGLVQAGGSLRLSCAASGSIFDFYAMGCYRQAPGKERELVAAISGSGGSTYYADSVKGRFTMSRDNAKNTVYLQMNSLKPEDTAVYYCSYYYWGQRTQVTVSS
polyreactivity (PSR sort gate): low polyreactivity
//
INPUT_SEQUENCE: QVQLVESGGGLVQAGGSLRLSCAASGRTFRANVMGWYRQAPGKERELVAAISKSGGRTYYADSVKGRFTISRDNAKNTVYLQMNSLKPEDTAVYYCAADIPSYRGYGYDYWGQGTQVTVSS
polyreactivity (PSR sort gate): high polyreactivity
//
INPUT_SEQUENCE: QDHLVESGGGLVQAGGSLRLSCAASGSIFYRYAMGWYRQAPWKERELVAAISRSGGTTYYADSVKGRFTISRDNAKNTVYLQMNSLKPEDTAVYYCAARVFHPYSTDPYYYWGQGTQVTVSS
polyreactivity (PSR sort gate): high polyreactivity
//
INPUT_SEQUENCE: QVQLVESGGGLVQAGGSLRLSCAASGFTLFTNAMGWYRQAPWKERELLARISRGGSTKYADSVKGRFTISRDNAKNTVYLQMNSLKREDTAVYSCATGYYGYRYGYWGQGTQVTVSS
polyreactivity (PSR sort gate): high polyreactivity
//
INPUT_SEQUENCE: QVQLVESGGGLVQAGCSLRLSPASGSTLAGNTMGWYRQAPGKERELVAAINDSGGSTYYADSVKGRFTISRDNAKNSVNLQMNSLKPEDTGVYYCNADGSAYIEDGYDYWGQGTQVTVSS
polyreactivity (PSR sort gate): low polyreactivity
//
INPUT_SEQUENCE: QVQLVESGGGLVQAGGSHRLSFAASGSLFYWYAMGWYRQAPGKERELVAAITTSGGRTYYADSVKGRFTISRDNAKNTVYLQMNSLIPEDSAVYYCNSAALFRYYDRWKTAYDYWGQGTQVTGSS
polyreactivity (PSR sort gate): high polyreactivity
//
INPUT_SEQUENCE: QVQLVESGGGLVQAGGSLRLSCAASGFTFGYNAMGWYRQAPGKERELVAAITSGGSTNYADSVKGRFTISRDNAKNTVYLQMNSLKPEDTAVYYCATGVRPWRKKPVEFYHRGQGTQVTVSS
polyreactivity (PSR sort gate): low polyreactivity
//
INPUT_SEQUENCE: QVQLVESGGGLVQAGGSLRLSCAASGSTFAGNPMGWYRQATGKERELVAAIDSSTGSTYYADSVKGRFTISRDNAMNTVYLQMNSLKPEDTAVYYCNKTSFLVKLDYWGQGTQVTVSS
polyreactivity (PSR sort gate): low polyreactivity
//
INPUT_SEQUENCE: QVQLVESGGGLVQAGGSLRLSCAASGLTFDWYTMGWYRQAPGKERELVATINSGGSTDYADSVKRRFTISRDNAKNTVYLQMNSLKPEDTAVYYCAAQPFVIDGGYRGDYWGQGTQVTVSS
polyreactivity (PSR sort gate): low polyreactivity
//
INPUT_SEQUENCE: QVQVVESGGGLVQAGGSLSLSCAASGGIFHSNAMGWYRQAPGKERELVAAISWNTGSTYYADSVKGRFTISRDNAKQTVYLQMNSLKPEDTAVYYCAASYRSPWLRYDYWGQGTQVTVSS
polyreactivity (PSR sort gate): high polyreactivity

Returns the measured polyreactivity (PSR sort gate) for the input sequence. Input: QVQLVESGGGLVQAGGSLRLSCAASGFTFETNAMGWYRQAHGKERELVATITGGGSTNYADSVKGRFTISRDNAKNTVYLQMNSLKPEDTAVYYCNAVHEASYAGVDYWGQGTQVTVSS
low polyreactivity
